A collection of compounds and their measured z-score
test: E. coli acrAB mutant growth effects, primary screen, E. coli filamentation inducers, strain DRC39, OD650, 24 h (AID 1178); settings: higher = more signal, called active from +8 up or from −8 down;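 also: growth measured as culture turbidity by optical density at 650 nm; test concentration not given here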

{"COMPOUND": "CS(=O)(=O)CCOC(=O)C1=CC(CCCO)=CC(C2CC2)N(Cc2cccc(OC(F)(F)F)c2)C=C1C(=O)OCCS(C)(=O)=O (centres undefined)", "z-score": 0.9}
{"COMPOUND": "O=C(O)[C@H]1C[C@H]2C(=O)N[C@@H](Cc3ccccc3)C(=O)N2[C@H]1c1cccc(OCCO)c1", "z-score": -0.688}
{"COMPOUND": "COC(=O)[C@@]1(Cc2ccc(F)cc2)[C@H]2c3cc(C(=O)N(C)C)n(Cc4c(CO)[nH]cc(C)c4=O)c3C[C@H]2CN1C(=O)c1ccccc1", "z-score": -0.0892}
{"COMPOUND": "CC(=O)n1cc(C(O)C2C=CC3C(=O)N(c4ccccc4)C(=O)C3N2Nc2ccc(C(C)C)cc2)c2ccccc21 (centres undefined)", "z-score": -0.0648}
{"COMPOUND": "C=CCC(OC(C)=O)[C@@H]1[C@@H](N(Cc2cc3ccccc3o2)C(=O)c2ccc(-c3ccccc3)cc2)c2cc(OCCCO)ccc2N1C(=O)Cc1ccc(OC)cc1 (some centres undefined)", "z-score": -0.384}
{"COMPOUND": "CCOC(=O)C1=C[C@@H](C(C)(C)C)N(S(=O)(=O)c2ccc(C)cc2)[C@H]1c1ccccc1", "z-score": 0.128}
{"COMPOUND": "O=C1O[C@H](c2ccccc2)[C@H](c2ccccc2)N2[C@H]1[C@@H](C(=O)O)[C@]1(C(=O)Nc3ccc(C#CC4(O)CCCCCC4)cc31)[C@H]2c1ccc(O)cc1", "z-score": 0.451}
{"COMPOUND": "[N-]=[N+]=NCc1ccccc1[C@@H]1OC(c2ccc(OCCCO)cc2)=N[C@]1(Cc1ccccc1N=[N+]=[N-])C(=O)N1CCCCC1", "z-score": -0.0949}
{"COMPOUND": "COC(=O)c1c2oc(c1C(=O)OC)C(=O)N1CCC[C@H]1Cn1nncc1CN(Cc1ccccc1)C(=O)N[C@H](CO)CC2", "z-score": 0.663}
{"COMPOUND": "COc1ccc(C#Cc2ccc3c(c2)[C@]2(C(=O)N3)[C@H](c3ccc(OCCO)cc3)N3[C@H](c4ccccc4)[C@H](c4ccccc4)OC(=O)[C@H]3[C@@H]2C(=O)N2CCc3cc(OC)c(OC)cc3C2)cc1", "z-score": -0.479}
{"COMPOUND": "[N-]=[N+]=Nc1ccccc1[C@@H]1OC(c2ccc(OCCCO)cc2)=N[C@]1(Cc1ccccc1)C(=O)NCc1ccccc1", "z-score": -0.324}
{"COMPOUND": "COC(=O)[C@@]1(Cc2ccc(OC)cc2)[C@H]2c3cc(C(=O)N4CCCC4)n(Cc4ccc(S(C)(=O)=O)cc4)c3C[C@H]2CN1C(=O)c1ccccc1", "z-score": -0.867}
{"COMPOUND": "CCCNC(=O)[C@@]1(C)c2ccccc2C(=O)N(Cc2ccccc2)[C@H]1c1ccc(CO)cc1", "z-score": 0.503}
{"COMPOUND": "CCN(CC)c1ccc(N2CC=CC34O[C@@H]5C=CCCOC(=O)C5[C@H]3C(=O)N(CCO)[C@@H]4C2=O)cc1 (some centres undefined)", "z-score": 0.449}
